# System: ATP;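 also: ATP exposure 15 min at 22 °C before imaging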
# Experiment notes: switch fluorescence ratio, 500 uM ATP over buffer (Cy3 cluster intensity, sum of 5 cycles each) (fold (ratio)); higher = stronger signal-on switching upon ATP binding; sequences stand for … in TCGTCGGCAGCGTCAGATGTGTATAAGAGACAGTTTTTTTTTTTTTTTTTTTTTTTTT…TC
# Test settings: aptamer strand: ATP DNA aptamer (quencher-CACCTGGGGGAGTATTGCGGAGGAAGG + anchor), 100 nM annealed; ATP concentration: 500 uM
Reported metric: switch fluorescence ratio

>  <Macromolecule sequence>
TGTATGGTTT

>  <Value observed>
0.971

$$$$
>  <Macromolecule sequence>
GGGGGAGAGG

>  <Value observed>
0.99

$$$$
>  <Macromolecule sequence>
GGGATTTGGC

>  <Value observed>
0.995

$$$$
>  <Macromolecule sequence>
TCTATTCCCT

>  <Value observed>
1.02

$$$$
>  <Macromolecule sequence>
GTTTTGATGG

>  <Value observed>
1

$$$$
>  <Macromolecule sequence>
TAGGGGCAGT

>  <Value observed>
1.09

$$$$
